- Target Or System: DNA dC->dU-editing enzyme APOBEC-3G (Homo sapiens)
- Method Summary: qHTS for inhibitors of Vif-A3G interactions: Cherry picks counterscreen;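 further: max response given as percent of control signal; hits raise yellow fluorescence by blocking Vif-driven A3G-eYFP degradation; nearly all actives have a fitted effect of over 70% in size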
- Condition Info: HeLa A3G-eYFP + Vif (tagged APOBEC3G with the HIV-1 protein that degrades it), eYFP fluorescence, 24 h
The whole screen tested about 2,100 compounds, of which about 1,100 (52%) were called active. About 27% were inconclusive and are not listed. The set was probably picked from earlier hits. Some of the results follow.
Provide the reported max response of each item.
Quick reminder: number only, in %, skip the unit.

q: Return reported max response; argument: Cc1ccc(S(=O)(=O)N2CCN(C(=O)CSC(=S)N3CCCC3)CC2)c(C)c1
a: -17.2

q: Return reported max response; argument: CC(=O)Nc1ccc(NC(=O)C/C(C)=N/NC(N)=S)cc1
a: 2.45

q: Return reported max response; argument: CSc1nc(Sc2ccccc2Cl)c2ccccc2n1
a: -6.36

q: Return reported max response; argument: CN(C)CCCN(C(=O)/C=C/c1cccs1)c1nc2ccc(F)cc2s1
a: -22.2

q: Return reported max response; argument: COCCNC(=S)NN=C1CCCCCC1
a: 0.0981

q: Return reported max response; argument: C/C(CCc1ccc2c(c1)OCO2)=N\NC(=S)NC(C)C
a: 4.06

q: Return reported max response; argument: Cc1cc(-n2c(SCC(=O)Nc3ccc(Br)cc3)nc3n[nH]c(C)c3c2=N)ccc1Cl
a: -13.3

q: Return reported max response; argument: O=C(NC(=S)N1CCN(C2CCCCC2)CC1)c1ccccc1
a: -11.9

q: Return reported max response; argument: CCS(=O)(=O)c1nn2c(N)c(/C=C3/C=CC(=O)C(OC)=C3)c(=O)nc2s1
a: 52.9

q: Return reported max response; argument: S=C(Nc1ccccc1)N1CCn2c1nc1ccccc12
a: -19.9

q: Return reported max response; argument: O=C1NC(c2ccccc2Br)=N/C1=C\c1ccco1
a: -4.52

q: Return reported max response; argument: COc1ccc(C(=O)N/N=C/c2cc(Br)ccc2O)cc1OC
a: -1.25

q: Return reported max response; argument: COc1ccccc1N=C1NC(=O)/C(=C/c2ccc(N(C)C)cc2)S1
a: 38.1

q: Return reported max response; argument: Cc1cccc(CSc2cccc3cccnc23)c1
a: -11.2

q: Return reported max response; argument: Cn1nnnc1SCCNCc1cc(Br)ccc1OCc1ccccc1Cl
a: -13.4

q: Return reported max response; argument: Cc1ccc2nc(C)c(C(=O)NN=C3CCCCCC3)n2c1
a: -10.3

q: Return reported max response; argument: Cn1c(=S)c2[nH]c(SCCN3CCCC3)nc2n(C)c1=O
a: 14.3

q: Return reported max response; argument: NC(=O)C1CCN(c2nc3ccccc3nc2NS(=O)(=O)c2ccc(Br)cc2)CC1
a: -5.92

q: Return reported max response; argument: CCOC(=O)c1c(NC(=O)CSc2nc3ccc(OC)cc3[nH]2)sc2c1CC(C)(C)NC2(C)C
a: -23

q: Return reported max response; argument: CCOC(=O)c1cnc(-n2nc(C)cc2C)nc1NNc1cc(C)nc(-c2ccccc2)n1
a: 14.5

q: Return reported max response; argument: O=C1[C@@H]2[C@@H](CN3CN(c4ccccc4)N=C(c4ccccc4)[C@@]23c2ccccc2)C(=O)N1c1ccccc1
a: 3.63

q: Return reported max response; argument: CN1CCN(c2nc3ccccc3nc2NS(=O)(=O)c2ccc(Br)cc2)CC1
a: -6.45

q: Return reported max response; argument: Cc1ccc(N=Cc2c(O)n(-c3nccs3)c(=O)c3ccccc23)c(C)c1
a: -1.11
